Biological target: N-lysine methyltransferase SMYD2 (Homo sapiens)
Test: Inhibition of recombinant human SMYD2 (1 to 433 residues) expressed in baculovirus infected Sf9 insect cells using biotinylated-p53 peptide (361 to 380 residues) as substrate measured after 50 mins in presence of 70 nM [3H]-SAM by scintillation proximity assay
pIC50: −log10 of the molar value.
Documented pIC50 across a set of molecules
value-type: pIC50

>>> numeric_value("Cc1nc(N)c2ncn(C3(C)CN(C(=O)c4cc(CN5CCN(C6CCCCCC6)CC5)n(C)n4)C3)c2n1")
7.24
>>> numeric_value("CC(C)N1CCN(Cc2cc(C(=O)N3CC(n4cnc5c(N)ncnc54)C3)nn2C)CC1")
6.12
>>> numeric_value("Cc1nc(N)c2ncn(C3CN(C(=O)c4cc(CC5CCN(C6CCCCCC6)CC5)n(C)n4)C3)c2n1")
7.49
>>> numeric_value("Cc1nc(N)c2ncn(C3CN(C(=O)c4ccn(CC5CCN(C6CCCCCC6)CC5)c4)C3)c2n1")
7.64
>>> numeric_value("Cc1cc2c(ncn2C2(C)CN(C(=O)c3ccn(CC4CCN([C@H]5C=CCCCC5)CC4)c3)C2)c(N)n1")
8.10
>>> numeric_value("Cc1nc(N)c2ncn(C3CN(C(=O)c4ccn(CC5CCN(C6C=CCCCC6)CC5)c4)C3)c2n1 (stereo unspecified)")
8.22

###

Molecular target: UniProt Q9NRG4
Assay: Inhibition of V5-tagged SMYD2 (unknown origin) transfected in human CAL120 cells co-transfected with FLAG-tagged p53 assessed as reduction in p53 methylation at K370 residue measured after 20 hrs by immunoblot analysis
Type: cell-based
pIC50: −log10 of the molar value.
value-type: pIC50

>>> result("Cc1cc2c(ncn2C2(C)CN(C(=O)c3ccn(CC4CCN([C@H]5C=CCCCC5)CC4)c3)C2)c(N)n1")
"5.52 to 5.89"

###

Molecular target: N-lysine methyltransferase SMYD2 (Homo sapiens, UniProt Q9NRG4)
Sequence (Q9NRG4 whole entry, the tested form may be a part): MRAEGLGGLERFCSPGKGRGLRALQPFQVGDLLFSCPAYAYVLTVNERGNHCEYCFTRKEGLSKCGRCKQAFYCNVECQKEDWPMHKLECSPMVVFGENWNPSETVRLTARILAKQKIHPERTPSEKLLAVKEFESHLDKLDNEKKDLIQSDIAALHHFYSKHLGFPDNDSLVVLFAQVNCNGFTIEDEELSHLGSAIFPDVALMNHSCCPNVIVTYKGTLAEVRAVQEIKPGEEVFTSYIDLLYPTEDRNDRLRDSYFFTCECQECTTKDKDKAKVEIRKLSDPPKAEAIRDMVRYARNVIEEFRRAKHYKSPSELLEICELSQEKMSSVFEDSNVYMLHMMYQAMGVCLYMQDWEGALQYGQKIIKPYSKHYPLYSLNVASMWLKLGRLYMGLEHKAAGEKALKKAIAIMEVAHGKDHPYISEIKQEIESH
Assay: Inhibition of V5-tagged SMYD2 (unknown origin) transfected in human MCF7 cells co-transfected with FLAG-tagged p53 assessed as reduction in p53 methylation at K370 residue measured after 20 hrs by immunoblot analysis
Format: cell-based
value-type: IC50 (nM)

>>> numeric_value("Cc1cc2c(ncn2C2(C)CN(C(=O)c3ccn(CC4CCN([C@H]5C=CCCCC5)CC4)c3)C2)c(N)n1")
1300

###

Biological target: UniProt:Q9NRG4
Assay: Inhibition of recombinant human SMYD2 (1 to 433 residues) expressed in baculovirus infected Sf9 insect cells using biotinylated-p53 peptide (361 to 380 residues) as substrate measured after 120 mins in presence of 20 uM [3H]-SAM by scintillation proximity assay
pIC50: −log10 of the molar value.
A collection of molecules and their measured pIC50
value-type: pIC50

>>> numeric_value("Cc1nc(N)c2ncn(C3CN(C(=O)c4ccn(CC5CCN(C6CCCCCC6)CC5)c4)C3)c2n1")
5.40
>>> numeric_value("Cc1nc(N)c2ncn(C3CN(C(=O)c4cc(CC5CCN(C6CCCCCC6)CC5)n(C)n4)C3)c2n1")
5.52
>>> numeric_value("Cc1cc2c(ncn2C2(C)CN(C(=O)c3ccn(CC4CCN([C@H]5C=CCCCC5)CC4)c3)C2)c(N)n1")
7.80
>>> numeric_value("Cc1nc(N)c2ncn(C3(C)CN(C(=O)c4cc(CN5CCN(C6CCCCCC6)CC5)n(C)n4)C3)c2n1")
5.52
>>> numeric_value("Cc1nc(N)c2ncn(C3CN(C(=O)c4ccn(CC5CCN(C6C=CCCCC6)CC5)c4)C3)c2n1 (stereo not given)")
7.64

###

Molecular target: UniProt:Q9NRG4
Assay: Inhibition of V5-tagged SMYD2 (unknown origin) transfected in human MDA-MB-231 cells co-transfected with FLAG-tagged p53 assessed as reduction in p53 methylation at K370 residue measured after 20 hrs by immunoblot analysis
Format: cell-based
value-type: IC50

>>> result("Cc1cc2c(ncn2C2(C)CN(C(=O)c3ccn(CC4CCN([C@H]5C=CCCCC5)CC4)c3)C2)c(N)n1")
"1300 to 3000 nM"

###

Target: N-lysine methyltransferase SMYD2 (Homo sapiens, UniProt Q9NRG4)
Test: Inhibition of V5-tagged SMYD2 (unknown origin) transfected in HEK293 cells co-transfected with FLAG-tagged p53 assessed as reduction in p53 methylation at K370 residue measured after 20 hrs by immunoblot analysis
Format: cell-based
pIC50: −log10 of the molar value.
value-type: pIC50

>>> result("Cc1cc2c(ncn2C2(C)CN(C(=O)c3ccn(CC4CCN([C@H]5C=CCCCC5)CC4)c3)C2)c(N)n1")
"5.52 to 5.89"
